- target system: T1, RSV-F.mmh (Respiratory Syncytial Virus)
- T1 construct: also called recombinant RSV-F; soluble monomeric RSV-F
- test name: SPR (Biacore), mAb captured via Fc, soluble RSV-F.mmh injected, 25 C
Measured Kd, listed per entry for reference.
Answer by giving the amount and then stating its unit.

Field: example entries. Status: answers known.
H1M3622N (antibody, V domains shown) VH: QVQLQQWGAGLLKPSETLSLTCAVYGGSLSDYYWSWIRQPPGKGLEWIGEINHSGDTNYDPSLKSRLTISVDTSKNQFSLKLNSVTAADTAVYYCASLYFNFWMWGRGALVTVSS VL: DIVMTQTPLSSPVILGQPASISCRSSQSLVYSDGNTYLSWLQQRPGQPPRLLIYKISNRFSGVPDRFSGSGTGTDFTLKISRVEAEDVGIYYCMQTTQFPLTFGGGTKVEIK : 2.38 nM
H1M3627N (antibody, V domains shown) VH: EVQLVESGGGLVQPGGSLRLSCAASGFTISNYEMNWVRQAPGKGLEWVSYISTSGITIYYADSVQGRFTISRDNAKNSLYLQLNSLRAEDTAVYYCARGYCTNGVCYPHYYYSDMDVWGQGTTVTVSS VL: DIQMTQSPSSLSASVGDRLTITCRASQTISTYLNWFQQKVGNAPKLLIYSTSSLQSGVPARFSGSGSGTDFTLTISSLQPEDFATYYCQQSYSSPPTFGQGTKVEIK : 2.02 nM
H1M3624N (antibody, V domains shown, also called H1M2634N) VH: QVQLEQSGAEVKKPGTSVRISCKASGDIFTGYYMNWVRQAPGQGLEWMGWINTNSGGTYFSQRFQGRVTLTRDTSIRTAYMELSRLRSDDTAVYYCARMFYDILTGSDVFDIWGQGTMVTVSS VL: DIQMTQSPSSLSASVGDRVTITCRASQDIRNDLGWYHQKPGKAPKCLIYGASSLQSGVPSRFSGSGSGTEFTLTISSLQPEDFATYYCLQHKNYMYTFGQGTKLEIK : 1.02 nM

# next binder below
QUERY: Field request: Kd | item: H1M3621N (antibody, V domains shown) VH: QVQLEQSGAEVKKPGASVRISCKASGDTFTGYYINWVRQAPGQGLEWMGWINTNSGGTYFSQKFQVRVILTRDTSINTAYMELSRLRSDDTAVYYCARMFYDILTNSDIFDIWGQGTMVTVSS VL: DIQMTQSPSSLSASVGDRVTITCRASQDIRNDLGWYQQKPGKAPKCLIYGASSLQSGVPSRFSGSGSGTEFTLTISSLQPEDFATYYCLQHKNYMYTFGQGTKLEIK
RESULT: 1.01 nM

Each recorded value in this set is attributed to patent US20140271653A1.
